Target: human Farnesoid X Receptor (FXR) ligand binding domain (Homo sapiens)
Sequence (Q96RI1 193-472 isoform Q96RI1-2): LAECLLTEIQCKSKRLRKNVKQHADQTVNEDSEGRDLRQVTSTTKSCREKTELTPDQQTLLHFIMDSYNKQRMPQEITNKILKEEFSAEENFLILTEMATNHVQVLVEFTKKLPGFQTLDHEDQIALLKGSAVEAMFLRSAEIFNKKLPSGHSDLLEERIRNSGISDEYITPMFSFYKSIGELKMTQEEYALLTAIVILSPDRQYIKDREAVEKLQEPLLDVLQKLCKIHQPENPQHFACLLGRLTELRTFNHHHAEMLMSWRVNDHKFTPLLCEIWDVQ
Test: Human GST-FXR LBD co-activator interaction assay (FXR HTRF assay)
Conditions: GST-FXR LBD with biotin-labeled SRC-1 peptide, FRET/HTRF, 2.5 hours at room temperature; response relative to GW4064; read-out: FXR coactivator interaction assay (HTRF) (EC50)
Description: Human GST-FXR LBD Co-Activator Interaction Assay. The FXR HTRF assay is a biochemical assay measuring the interaction between FXR and a coactivator protein (SRC1). […] The ligand-dependent interaction between GST-FXR LBD and a peptide derived from Steroid Receptor Coactivator-1 (SRC-1) was monitored by Fluorescence Resonance Energy Transfer (FRET). […] Plates are incubated at room temperature in the dark for 2.5 hours before reading on an Envision (PerkinElmer) at 665 nm and 590 nm. […]
measurement_type: EC50 (nM)

Solved entries (count: 5):
| compound | units_of_measure | value_observed |
| --- | --- | --- |
| NC(=O)c1ccc2nc(N3CCC(OCc4c(-c5ccccc5OC(F)(F)F)noc4C4CC4)CC3)sc2c1 | nM | 164 |
| Clc1cccc(Cl)c1-c1noc(C2CC2)c1COC1CCN(c2nc3ccc(-c4nn[nH]n4)cc3s2)CC1 | nM | 15 |
| CCOC(=O)c1ccc2nc(N3CCC(OCc4c(-c5ccccc5OC(F)(F)F)noc4C4CC4)CC3)sc2c1 | nM | 929 |
| O=C(O)c1ccc2nc(N3CCC(OCc4c(-c5ccccc5C(F)(F)F)noc4C4CC4)CC3)sc2c1 | nM | 86 |
| O=C(O)c1ccc2nc(N3CCCC(OCc4c(-c5ccccc5C(F)(F)F)noc4C4CC4)CC3)sc2c1 (stereo not shown) | nM | 8 |

A. O=C(O)c1cc(F)c2nc(N3CCC(OCc4c(-c5ccccc5OC(F)(F)F)noc4C4CC4)CC3)sc2c1
B. O=C(O)c1ccc2nc(N3CCC(OCc4c(CC5CCCCC5)noc4C4CC4)CC3)sc2c1
**Q:** Higher EC50 between A and B ? Indicate your choice by writing its label.
**A:** B
